B1: MLL5 (parent)
chain: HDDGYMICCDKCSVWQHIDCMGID

variants of: B1; assay: protein stability index of a GFP-peptide fusion (GPS, HEK-293T) (PSI 1-6); higher = more stable; conditions: c terminus: a fixed tail appended;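 also: lentivirally expressed fusions sorted by FACS into six bins by GFP to DsRed ratio, PSI derived from sequencing read proportions per bin multiplied by bin number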
Give protein stability index for every item shown.
One number for each entry.

Worked cases, answers included:
variant label | protein stability index
D2V | 2.02
D24Q | 2.47

Quick batch: protein stability index for everything below.
1. D3Q
2. D10T
3. C8A

[2.43, 1.69, 3.27]

Quick batch: protein stability index for everything below.
1. D2I
2. D10I

1. 2.87
2. 3.54

Quick batch: protein stability index for everything below.
1. C9Y
2. D24K
3. W15R
4. V14F
5. C12S
6. I23A

1: 1.47; 2: 2.13; 3: 3.18; 4: 1.86; 5: 3.01; 6: 2.56

Quick batch: protein stability index for everything below.
1. H17T
2. M21I
3. V14W
4. I23N
5. C12W
6. C12N
7. W15L

1.64
2.5
2.11
2.52
2.32
3.05
3.16

Which measured protein stability index value corresponds to H1C ?
2.1
